Reported MIC values, Staphylococcus epidermidis ATCC 12228.
Write down the numeric answer in µg/mL and omit the unit.

Here is how some molecules turned out for MIC.
>>> assay_result("COc1cc(Cc2cnc(N)nc2N)cc(OC)c1OC [Trimethoprim, reference compound]")
0.062
>>> assay_result("COc1cc(Cc2cnc(N)nc2N)c2cc(Cc3ccccc3)oc2c1OC")
0.062
>>> assay_result("COc1cc(Cc2cnc(N)nc2N)c2cc(Cc3ccc(F)cc3)oc2c1OC")
0.015

Okay, now this molecule:
Staphylococcus epidermidis ATCC 12228 data for COc1cc(Cc2cnc(N)nc2N)c2cc(CC3CC3)oc2c1OC ; its MIC: 0.062

Each recorded value in this set is attributed to patent US7030130B2.
